# Test system: PPARa:RXRa (NR concentration 270 nM, RXRa partner concentration 90 nM)
# ASSAY DETAILS: PBM binding z-score (relative to random genomic background probes); higher = stronger binding; sequences stand for … in GC…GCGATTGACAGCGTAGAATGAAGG
ASSAY METRIC: PBM binding z-score
The answer should be a number; do not append a unit.

stdin: Find the measured PBM binding z-score of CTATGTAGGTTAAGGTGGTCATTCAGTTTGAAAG and report it.
stdout: 3.64

stdin: Find the measured PBM binding z-score of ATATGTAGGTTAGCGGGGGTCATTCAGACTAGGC and report it.
stdout: 5.81

stdin: Find the measured PBM binding z-score of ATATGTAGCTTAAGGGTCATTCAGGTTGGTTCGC and report it.
stdout: 4.2

stdin: Find the measured PBM binding z-score of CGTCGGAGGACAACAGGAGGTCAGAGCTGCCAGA and report it.
stdout: 1.98

stdin: Find the measured PBM binding z-score of CGAAGTAGGTCAAAGGACAGTGAAAGGCGACGTA and report it.
stdout: 5.66

stdin: Find the measured PBM binding z-score of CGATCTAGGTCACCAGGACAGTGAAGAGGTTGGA and report it.
stdout: 4.81

stdin: Find the measured PBM binding z-score of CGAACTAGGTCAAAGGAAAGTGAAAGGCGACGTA and report it.
stdout: 4.7

stdin: Find the measured PBM binding z-score of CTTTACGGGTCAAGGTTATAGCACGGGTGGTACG and report it.
stdout: 5.26

stdin: Find the measured PBM binding z-score of GGAACGGGGGCAAGTTGATAGCAGAGTTTGATGG and report it.
stdout: 4.02

stdin: Find the measured PBM binding z-score of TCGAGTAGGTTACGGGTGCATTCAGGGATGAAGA and report it.
stdout: 2.22

stdin: Find the measured PBM binding z-score of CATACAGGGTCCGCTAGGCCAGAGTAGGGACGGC and report it.
stdout: -1.11

stdin: Find the measured PBM binding z-score of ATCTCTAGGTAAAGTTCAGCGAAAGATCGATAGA and report it.
stdout: 2.81

stdin: Find the measured PBM binding z-score of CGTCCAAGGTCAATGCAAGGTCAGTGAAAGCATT and report it.
stdout: 5.79

stdin: Find the measured PBM binding z-score of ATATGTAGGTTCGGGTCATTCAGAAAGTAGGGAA and report it.
stdout: 4.37

stdin: Find the measured PBM binding z-score of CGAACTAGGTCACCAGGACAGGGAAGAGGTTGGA and report it.
stdout: 5.11

stdin: Find the measured PBM binding z-score of CGAACTAGGTCACCAGGAAAGTGAAGAGGTTGGA and report it.
stdout: 5.05

stdin: Find the measured PBM binding z-score of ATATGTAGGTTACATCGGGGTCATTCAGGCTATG and report it.
stdout: 5.71

stdin: Find the measured PBM binding z-score of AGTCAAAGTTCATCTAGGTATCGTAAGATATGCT and report it.
stdout: 4.52

stdin: Find the measured PBM binding z-score of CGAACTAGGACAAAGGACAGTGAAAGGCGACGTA and report it.
stdout: 2.45

stdin: Find the measured PBM binding z-score of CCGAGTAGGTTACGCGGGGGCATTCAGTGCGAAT and report it.
stdout: 3.32

stdin: Find the measured PBM binding z-score of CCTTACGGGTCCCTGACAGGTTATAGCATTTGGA and report it.
stdout: 0.0699

stdin: Find the measured PBM binding z-score of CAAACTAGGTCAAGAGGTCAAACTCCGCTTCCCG and report it.
stdout: 6.77

stdin: Find the measured PBM binding z-score of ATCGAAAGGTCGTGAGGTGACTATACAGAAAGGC and report it.
stdout: 5.49

stdin: Find the measured PBM binding z-score of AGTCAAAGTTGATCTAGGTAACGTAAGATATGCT and report it.
stdout: 0.713

stdin: Find the measured PBM binding z-score of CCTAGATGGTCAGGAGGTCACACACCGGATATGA and report it.
stdout: 4.14

stdin: Find the measured PBM binding z-score of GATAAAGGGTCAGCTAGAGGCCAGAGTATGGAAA and report it.
stdout: 5.06

stdin: Find the measured PBM binding z-score of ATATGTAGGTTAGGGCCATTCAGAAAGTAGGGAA and report it.
stdout: 2.71

stdin: Find the measured PBM binding z-score of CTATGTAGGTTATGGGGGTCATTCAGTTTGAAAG and report it.
stdout: 6.04

stdin: Find the measured PBM binding z-score of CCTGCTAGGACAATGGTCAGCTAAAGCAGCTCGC and report it.
stdout: -0.776

stdin: Find the measured PBM binding z-score of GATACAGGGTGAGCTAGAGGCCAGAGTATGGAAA and report it.
stdout: 0.23

stdin: Find the measured PBM binding z-score of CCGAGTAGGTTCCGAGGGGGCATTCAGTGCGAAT and report it.
stdout: 2.04

stdin: Find the measured PBM binding z-score of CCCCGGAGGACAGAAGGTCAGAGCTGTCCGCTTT and report it.
stdout: 1.87

stdin: Find the measured PBM binding z-score of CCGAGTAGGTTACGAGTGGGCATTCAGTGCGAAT and report it.
stdout: 1.09

stdin: Find the measured PBM binding z-score of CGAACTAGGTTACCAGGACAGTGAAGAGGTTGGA and report it.
stdout: 2.53

stdin: Find the measured PBM binding z-score of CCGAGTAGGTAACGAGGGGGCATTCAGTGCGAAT and report it.
stdout: 2.83

stdin: Find the measured PBM binding z-score of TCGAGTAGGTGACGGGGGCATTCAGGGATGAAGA and report it.
stdout: 3.82

stdin: Find the measured PBM binding z-score of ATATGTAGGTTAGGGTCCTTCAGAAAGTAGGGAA and report it.
stdout: 3.14

stdin: Find the measured PBM binding z-score of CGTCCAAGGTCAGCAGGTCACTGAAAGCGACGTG and report it.
stdout: 5.5

stdin: Find the measured PBM binding z-score of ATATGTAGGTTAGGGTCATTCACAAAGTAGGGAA and report it.
stdout: 5.7

stdin: Find the measured PBM binding z-score of CTTTGTAGGTTAAGGGGGTCATTCAGTTTGAAAG and report it.
stdout: 6.06

stdin: Find the measured PBM binding z-score of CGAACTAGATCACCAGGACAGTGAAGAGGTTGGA and report it.
stdout: -0.082

stdin: Find the measured PBM binding z-score of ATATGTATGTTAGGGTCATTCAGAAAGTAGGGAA and report it.
stdout: 4.84

stdin: Find the measured PBM binding z-score of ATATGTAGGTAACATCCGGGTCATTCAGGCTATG and report it.
stdout: 4.36

stdin: Find the measured PBM binding z-score of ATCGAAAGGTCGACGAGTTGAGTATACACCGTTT and report it.
stdout: 3.98

stdin: Find the measured PBM binding z-score of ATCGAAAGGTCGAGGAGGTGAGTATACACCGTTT and report it.
stdout: 4.26

stdin: Find the measured PBM binding z-score of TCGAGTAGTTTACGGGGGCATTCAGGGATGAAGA and report it.
stdout: 2.69

stdin: Find the measured PBM binding z-score of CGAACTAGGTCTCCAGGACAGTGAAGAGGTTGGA and report it.
stdout: 0.539

stdin: Find the measured PBM binding z-score of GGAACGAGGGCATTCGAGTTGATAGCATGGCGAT and report it.
stdout: 1.38

stdin: Find the measured PBM binding z-score of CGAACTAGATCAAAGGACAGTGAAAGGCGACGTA and report it.
stdout: 1.77

stdin: Find the measured PBM binding z-score of CCGAGTAGGTTACGAGCGGGCATTCAGTGCGAAT and report it.
stdout: 0.9

stdin: Find the measured PBM binding z-score of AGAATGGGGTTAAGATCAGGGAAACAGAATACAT and report it.
stdout: 5.62
